Give GI50 for every item shown.
Tested on: COLO 205
Test: NCI tumour cell line growth inhibition, 48 h
Calls of active or inactive are those of the source. Cut-off read from the data, not from the text of the source: active = GI50 up to about 1.1 µM and inactive = higher.

Q: Which GI50 is reported with COLO 205 for this entry: CC(C)(C)OC(=O)N/N=C(/N)Cc1ccc(Cl)cc1 ?
Result: > 100 µM (inactive)

Q: Which GI50 is reported with COLO 205 for this entry: COc1c(N2CCCCC2)c2c(=O)c3ccccc3oc2c2c3ccccc3n(C)c12 ?
Result: 26.2 µM (inactive)

Q: Which GI50 is reported with COLO 205 for this entry: Nc1nc2sc3ccccc3c(=O)n2n1 ?
Result: > 100 µM (inactive)

Q: Which GI50 is reported with COLO 205 for this entry: S=C(/N=c1\sc(NCc2ccccc2)nc2sc3c(c12)CCN(N1CCc2c(sc4nc(NCc5ccccc5)s/c(=N\C(=S)NCc5ccccc5)c24)C1)C3)NCc1ccccc1 ?
Result: 32.1 µM (inactive)

Q: Which GI50 is reported with COLO 205 for this entry: Cc1cc(-c2nc3c(F)cccc3s2)ccc1N ?
Result: 80.5 µM (inactive)

Q: Which GI50 is reported with COLO 205 for this entry: CCC1(O)C(=O)OCc2c1cc1n(c2=O)Cc2cc3cc(N)ccc3nc2-1 (stereo not drawn) ?
Result: 0.366 µM (active)

Q: Which GI50 is reported with COLO 205 for this entry: COC(=O)CN(C)P(=O)(N1CC1)N1CC1 ?
Result: > 100 µM (inactive)

Q: Which GI50 is reported with COLO 205 for this entry: C/C(CC(=O)Nc1ccc(C)c(C)c1)=N\NC(N)=S ?
Result: > 100 µM (inactive)

Q: Which GI50 is reported with COLO 205 for this entry: O=C(n1c(=O)n(-c2ccc(Cl)cc2)c(=O)n1C(=O)C(Cl)(Cl)Cl)C(Cl)(Cl)Cl ?
Result: > 100 µM (inactive)

Q: Which GI50 is reported with COLO 205 for this entry: CCOC(=O)c1cn2c([nH]c3ccccc32)c(C#N)c1=O ?
Result: 41.6 µM (inactive)

Q: Which GI50 is reported with COLO 205 for this entry: Cc1c2nc3ccccc3sc-2cc(=O)c1C ?
Result: 34.7 µM (inactive)

Q: Which GI50 is reported with COLO 205 for this entry: C=C1CC(CC)(CCN2C(=O)c3ccccc3C2=O)OC1=O (stereo not drawn) ?
Result: 16.7 µM (inactive)

Q: Which GI50 is reported with COLO 205 for this entry: CCCNC1CC(n2cc(C)c(=O)[nH]c2=O)OC1CO (stereo not drawn) ?
Result: > 100 µM (inactive)

Q: Which GI50 is reported with COLO 205 for this entry: c1ccc2c(c1)c1c(n2CCOCCN2CCOCC2)CCCC1 ?
Result: > 10 µM (inactive)

Q: Which GI50 is reported with COLO 205 for this entry: O=CC(NC(=O)N(CCCl)N=O)C(O)C(O)C(O)CO (stereo not drawn) ?
Result: > 1250 µM (inactive)

Q: Which GI50 is reported with COLO 205 for this entry: COc1ncnc2c1cnn2Cc1cn(COCC(O)CO)nn1 (stereo not drawn) ?
Result: > 100 µM (inactive)

Q: Which GI50 is reported with COLO 205 for this entry: C1CSCCSCCSCCSC1 ?
Result: > 100 µM (inactive)

Q: Which GI50 is reported with COLO 205 for this entry: CC(CC(=O)Nc1ccc(NC(=O)CC(C)/N=N\C(N)=O)cc1)/N=N\C(N)=O (stereo not drawn) ?
Result: 34.8 µM (inactive)

Q: Which GI50 is reported with COLO 205 for this entry: CC1(C)C(=O)N(O)C(C)(C)N1N=O ?
Result: > 10 µM (inactive)

Q: Which GI50 is reported with COLO 205 for this entry: CCCN1CN(C(C(=O)N[C@@H]2C(=O)N3C2SC(C)(C)C3C(=O)O)c2ccc(O)cc2)CSC1=S (stereo partly drawn) ?
Result: 29.8 µM (inactive)

Q: Which GI50 is reported with COLO 205 for this entry: CCOC(=O)N1c2ccccc2N(C(=O)OCC)C1CC(=O)/C=C/c1ccccc1 ?
Result: 2.04 µM (inactive)

Q: Which GI50 is reported with COLO 205 for this entry: c1ccc2c(c1)CC1c3[nH]c4ccccc4c3CCN21 (stereo not drawn) ?
Result: > 10 µM (inactive)

Q: Which GI50 is reported with COLO 205 for this entry: Cc1cc(S(=O)(=O)Nc2n[nH]c(-c3ccc(Cl)cc3)n2)c(SSc2cc(Cl)c(C)cc2S(=O)(=O)Nc2n[nH]c(-c3ccc(Cl)cc3)n2)cc1Cl ?
Result: 25.9 µM (inactive)

Q: Which GI50 is reported with COLO 205 for this entry: COC1(OC)CC(CO)(CNc2nc(N)nc(Cl)c2/C=N\O)C1 ?
Result: 38.6 µM (inactive)

Q: Which GI50 is reported with COLO 205 for this entry: COC(=O)C1=C(C(=O)OC)C23C=CC=CC24C(C(=O)OC)=C(C(=O)OC)C4C1C3 (stereo not drawn) ?
Result: > 100 µM (inactive)

Q: Which GI50 is reported with COLO 205 for this entry: COc1cccc(OCC(=N/NC(=O)c2ccncc2)/N=C/c2cccnc2)c1 ?
Result: > 100 µM (inactive)

Q: Which GI50 is reported with COLO 205 for this entry: N#Cc1c(NCCc2ccc(F)cc2)c2ccccc2n2c1nc1ccccc12 ?
Result: 71.6 µM (inactive)

Q: Which GI50 is reported with COLO 205 for this entry: Nc1ccc(C(=O)NN2C(=O)C(Cl)C2c2cccc(O)c2)cc1 (stereo not drawn) ?
Result: 17.1 µM (inactive)

Q: Which GI50 is reported with COLO 205 for this entry: Cc1c2c(OCCN3CCCCC3)nn(C)c(=O)c2c(C)n1-c1ccccc1 ?
Result: 17.7 µM (inactive)

Q: Which GI50 is reported with COLO 205 for this entry: NC(=O)N/N=C1\CCCCc2ccccc21 ?
Result: > 10 µM (inactive)

Q: Which GI50 is reported with COLO 205 for this entry: COc1cc([N+](=O)[O-])cc2c1NC(=O)C2(C)SC (stereo not drawn) ?
Result: > 100 µM (inactive)

Q: Which GI50 is reported with COLO 205 for this entry: Nc1nc2ccc3ccccc3c2[nH]1 ?
Result: > 10 µM (inactive)

Q: Which GI50 is reported with COLO 205 for this entry: Cc1ccc(C(C2C(=O)N(C)C(=O)N(C)C2=O)C(F)(F)C(=O)N(C)C)cc1 (stereo not drawn) ?
Result: > 100 µM (inactive)

Q: Which GI50 is reported with COLO 205 for this entry: O=C(CSC1=NC(=O)C2(NN1)c1ccccc1-c1ccccc12)NC(=S)Nc1ccccc1 ?
Result: > 10 µM (inactive)

Q: Which GI50 is reported with COLO 205 for this entry: COC(=O)C(CC(=O)Nc1ccc(Cl)c(Cl)c1)C(=O)C(=O)Nc1ccc(Cl)c(Cl)c1 (stereo not drawn) ?
Result: > 100 µM (inactive)

Q: Which GI50 is reported with COLO 205 for this entry: CC1(C)CCCC2(C)C3=C(CCC12)C(=O)OC3 (stereo not drawn) ?
Result: > 100 µM (inactive)

Q: Which GI50 is reported with COLO 205 for this entry: C/C=C(/C)C(=O)O[C@H]1[C@H]2[C@@H]([C@@H](OC(C)=O)[C@H](C)C(=O)[C@@]34C[C@@H](C)C(=O)[C@]3(/C=C(\C)[C@H]1OC(C)=O)O4)C2(C)C ?
Result: 2.6 µM (inactive)

Q: Which GI50 is reported with COLO 205 for this entry: Cc1cccc(Nc2cnc(N)nc2N)c1 ?
Result: > 100 µM (inactive)

Q: Which GI50 is reported with COLO 205 for this entry: NC1C[C@H](n2cc(/C=C/Br)c(=O)[nH]c2=O)C[C@@H]1CO (stereo partly drawn) ?
Result: > 100 µM (inactive)

Q: Which GI50 is reported with COLO 205 for this entry: CCOc1ccc(NC(=O)CC2SC(Nc3ccc(C)cc3)=NC2=O)cc1 (stereo not drawn) ?
Result: > 100 µM (inactive)

Q: Which GI50 is reported with COLO 205 for this entry: CSCCC(NCc1c(O)ccc2ccc(=O)oc12)C(=O)O (stereo not drawn) ?
Result: > 100 µM (inactive)

Q: Which GI50 is reported with COLO 205 for this entry: CC(Br)C(=O)NN1C2=C(Nc3ccccc31)c1cccc3cccc2c13 (stereo not drawn) ?
Result: 75.5 µM (inactive)

Q: Which GI50 is reported with COLO 205 for this entry: CN[C@@H](C)[C@@H](N)c1ccccc1 ?
Result: > 100 µM (inactive)

* * *

Test system: U-251
Experiment: NCI tumour cell line growth inhibition, 48 h
Calls of active or inactive are those of the source. No stated cut-off is given here; in the data, active = GI50 up to about 1.1 µM and inactive = higher.
Form entry, call: pick from active, inactive

Q: Hello, I am checking results. What call was entered for Fc1ccc(C2SCc3nc4ccccc4n32)cc1F (stereo unspecified) ?
Result: inactive

Q: Hello, I am checking results. What call was entered for CN(/C(=N\O)c1ccccc1)c1ccccc1 ?
Result: inactive

Q: Hello, I am checking results. What call was entered for CC1(C)CN(CC(=O)O)CC(Cc2ccc(OCC(=O)O)cc2)N(CC(=O)O)CC(C)(C)SS1 (stereo unspecified) ?
Result: inactive

Q: Hello, I am checking results. What call was entered for C[Si](C)(C)/C=C\CCCN1C(=O)CCC1=O ?
Result: inactive

Q: Hello, I am checking results. What call was entered for Cc1cc(S(=O)(=O)Nc2n[nH]c(-c3ccc(Cl)cc3)n2)c(SSc2cc(Cl)c(C)cc2S(=O)(=O)Nc2n[nH]c(-c3ccc(Cl)cc3)n2)cc1Cl ?
Result: inactive

Q: Hello, I am checking results. What call was entered for COc1cccc(-c2cc(O)c3cc4c(cc3n2)OCO4)c1 ?
Result: active

Q: Hello, I am checking results. What call was entered for CNS(=O)(=O)NN(C)S(=O)(=O)c1ccc2ccccc2c1 ?
Result: inactive

Q: Hello, I am checking results. What call was entered for COc1cc(OC)cc(Oc2nc3ccccc3nc2C(=O)O)c1 ?
Result: inactive

Q: Hello, I am checking results. What call was entered for CCCCC(=O)Oc1ccc2c(C)cc(=O)oc2c1 ?
Result: inactive

Q: Hello, I am checking results. What call was entered for COc1cccc(-c2cccc(SC)n2)n1 ?
Result: inactive

Q: Hello, I am checking results. What call was entered for CCOC(=O)/C(=C/c1ccc(C(=O)OC)cc1)N(CC)CC ?
Result: inactive

Data provenance: ChEMBL document CHEMBL1201862
